# test-target: CYP124 (Mycobacterium tuberculosis, UniProt P9WPP3)
# Sequence (P9WPP3 whole entry, the tested form may be a part): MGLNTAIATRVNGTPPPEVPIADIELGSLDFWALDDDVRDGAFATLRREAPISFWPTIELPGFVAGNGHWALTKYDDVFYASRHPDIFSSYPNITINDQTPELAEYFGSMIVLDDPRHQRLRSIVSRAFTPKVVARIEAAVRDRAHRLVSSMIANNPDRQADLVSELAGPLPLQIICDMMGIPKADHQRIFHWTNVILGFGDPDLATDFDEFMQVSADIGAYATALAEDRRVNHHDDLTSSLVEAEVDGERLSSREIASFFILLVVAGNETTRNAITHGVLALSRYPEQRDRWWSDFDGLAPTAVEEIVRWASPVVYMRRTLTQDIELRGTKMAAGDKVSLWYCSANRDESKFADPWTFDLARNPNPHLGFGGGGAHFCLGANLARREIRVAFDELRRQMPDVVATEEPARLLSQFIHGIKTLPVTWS
# study-conditions: fragment 1 mM, P450 4-6 µM; relative to DMSO (419 nm)
Form field: Δλmax (nm) CYP124, fragment screen (one value per entry).
metric: Δλmax (nm) CYP124, fragment screen

> print(dat)
                 smiles.text  observed.measurement
1  Cc1cc(C)n(-c2ccc(N)cc2)n1                     0
2               Brc1c[nH]cn1                     0
3      Cc1ccc(S(N)(=O)=O)nc1                     0
4      c1ccc(-c2c[nH]cn2)cc1                     4
5        Nc1cccc(Cn2cncn2)c1                     1
6                  Oc1ccccn1                     0
7      N#Cc1cccc(-n2ccnc2)c1                     1
8             Clc1cncc(Cl)c1                     0
